Provenance of the data: ChEMBL document CHEMBL1148836

Tested on: Sodium/hydrogen exchanger 1 (Homo sapiens)
Sequence (P19634 whole entry): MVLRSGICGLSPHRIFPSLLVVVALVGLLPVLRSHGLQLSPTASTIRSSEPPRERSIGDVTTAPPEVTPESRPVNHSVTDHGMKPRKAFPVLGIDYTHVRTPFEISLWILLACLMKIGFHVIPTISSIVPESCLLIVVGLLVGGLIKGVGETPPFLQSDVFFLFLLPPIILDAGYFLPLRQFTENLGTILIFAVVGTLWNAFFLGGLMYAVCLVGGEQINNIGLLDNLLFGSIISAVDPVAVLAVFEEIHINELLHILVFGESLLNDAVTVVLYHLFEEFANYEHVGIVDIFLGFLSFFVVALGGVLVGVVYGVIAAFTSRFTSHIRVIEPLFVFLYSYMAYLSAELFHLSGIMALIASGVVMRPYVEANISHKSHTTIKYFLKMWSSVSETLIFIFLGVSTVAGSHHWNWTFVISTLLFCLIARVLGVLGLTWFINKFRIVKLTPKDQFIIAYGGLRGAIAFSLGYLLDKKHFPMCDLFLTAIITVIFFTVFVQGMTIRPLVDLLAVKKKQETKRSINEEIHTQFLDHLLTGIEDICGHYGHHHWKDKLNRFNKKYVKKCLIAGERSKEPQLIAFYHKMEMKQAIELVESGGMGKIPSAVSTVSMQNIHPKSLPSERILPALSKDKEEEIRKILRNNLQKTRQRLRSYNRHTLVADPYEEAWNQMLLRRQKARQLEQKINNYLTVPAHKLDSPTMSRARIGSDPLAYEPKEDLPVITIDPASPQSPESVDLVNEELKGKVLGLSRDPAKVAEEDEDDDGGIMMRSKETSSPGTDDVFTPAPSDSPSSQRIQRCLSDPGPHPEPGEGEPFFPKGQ
Assay overview: Inhibition of human NHE1 expressed in PS120 cells
pIC50: −log10 of the molar value.
Recorded metric: pIC50

Examples with answers:
>>> val("N=C(N)NC(=O)c1oc(-c2ccccc2)cc1N")
5.64
>>> val("COc1ccc(Cl)cc1-c1cc(N(C)C(C)=O)c(C(=O)NC(=N)N)o1")
4.48

I = NC(N)=NC(=O)c1oc(-c2cc(Cl)ccc2Cl)cc1N1CCCCC1
II = COc1ccc(Cl)cc1-c1cc(-c2ccccc2)c(C(=O)NC(=N)N)o1
Which record shows the lower pIC50: the first, I , or the second, II ? # reply format: chosen label
II
(II: 5.25, I: 6.32)
